experimentalDetails: Cytotoxicity against human HepG2(2.2.15) cells
Format: cell-based
measurementLabel: CC50 (µM)
Give bare numbers, in µM.

-- ask Please give the measured CC50 for this compound: CC(=O)OCC(=O)O[C@@H](C[C@@H](C)[C@]12CC[C@@]3(C)[C@@]1(C[C@H](OC(=O)COC(C)=O)[C@H]1[C@@]4(C)CCC(=O)C(C)(C)[C@@H]4CC[C@@]13C)O2)[C@@H](OC(=O)COC(C)=O)C(C)(C)O
-- reply 250

###

experimentalDetails: Cytotoxicity against human HepG2(2.2.15) cells
Assay type: cell-based
measurementLabel: CC50

moleculeSmiles: C=C(C)[C@H](OC(=O)CCCC)[C@H](C[C@@H](C)C1=C2C[C@H](OC(=O)CCCC)[C@H]3[C@@]4(C)CCC(=O)C(C)(C)[C@@H]4CC[C@]3(C)[C@@]2(C)CC1)OC(=O)CCCC
measured: > 920 µM
--
moleculeSmiles: CCCCCCCC(=O)O[C@@H](C[C@@H](C)C1=C2C[C@H](OC(=O)CCCCCCC)[C@H]3[C@@]4(C)CCC(=O)C(C)(C)[C@@H]4CC[C@]3(C)[C@@]2(C)CC1)[C@@H](OC(=O)CCCCCCC)C(C)(C)O
measured: > 600 µM

Moving on to the next compound.
-- ask Please give the measured CC50 for this compound: CCOCC(=O)O[C@@H](C[C@@H](C)[C@]12CC[C@@]3(C)[C@@]1(C[C@H](OC(=O)COCC)[C@H]1[C@@]4(C)CCC(=O)C(C)(C)[C@@H]4CC[C@@]13C)O2)[C@@H](OC(=O)COCC)C(C)(C)OC(=O)COCC
-- reply > 1400 µM

###

experimentalDetails: Cytotoxicity against human HepG2(2.2.15) cells
Type: cell-based
measurementLabel: CC50

The cases that follow already have their CC50 on record.
moleculeSmiles: Nc1ccn([C@@H]2CS[C@H](CO)O2)c(=O)n1
CC50: 31000 µM
--
moleculeSmiles: C[C@H](C[C@H](OC(=O)COc1ccccc1)[C@@H](OC(=O)COc1ccccc1)C(C)(C)O)C1=C2C[C@H](OC(=O)COc3ccccc3)[C@H]3[C@@]4(C)CCC(=O)C(C)(C)[C@@H]4CC[C@]3(C)[C@@]2(C)CC1
CC50: > 1300 µM
--
moleculeSmiles: C=C(C)[C@H](OC(=O)COCC)[C@H](C[C@@H](C)C1=C2C[C@H](OC(=O)COCC)[C@H]3[C@@]4(C)CCC(=O)C(C)(C)[C@@H]4CC[C@]3(C)[C@@]2(C)CC1)OC(=O)COCC
CC50: > 1200 µM

Each of the following entries comes with a recorded value; kindly state CC50 for each.
1. C/C=C/C=C/C(=O)O[C@@H](C[C@@H](C)C1=C2C[C@H](OC(=O)/C=C/C=C/C)[C@H]3[C@@]4(C)CCC(=O)C(C)(C)[C@@H]4CC[C@]3(C)[C@@]2(C)CC1)[C@@H](OC(=O)/C=C/C=C/C)C(C)(C)O
2. C[C@H](C[C@H](OC(=O)C1CCCCC1)[C@@H](OC(=O)C1CCCCC1)C(C)(C)O)C1=C2C[C@H](OC(=O)C3CCCCC3)[C@H]3[C@@]4(C)CCC(=O)C(C)(C)[C@@H]4CC[C@]3(C)[C@@]2(C)CC1
3. C[C@H](C[C@H](OC(=O)c1ccc(Cl)cc1)[C@@H](OC(=O)c1ccc(Cl)cc1)C(C)(C)O)C1=C2C[C@H](OC(=O)c3ccc(Cl)cc3)[C@H]3[C@@]4(C)CCC(=O)C(C)(C)[C@@H]4CC[C@]3(C)[C@@]2(C)CC1
4. C[C@H](C[C@H](OC(=O)CCOc1ccccc1)[C@@H](OC(=O)CCOc1ccccc1)C(C)(C)O)C1=C2C[C@H](OC(=O)CCOc3ccccc3)[C@H]3[C@@]4(C)CCC(=O)C(C)(C)[C@@H]4CC[C@]3(C)[C@@]2(C)CC1

-- reply
1: > 900 µM; 2: > 800 µM; 3: > 900 µM; 4: > 950 µM
